System: M2 receptors
METHOD SUMMARY: biochemical
Type: binding
ASSAY CONTEXT: Table 1; ratio of M2 IC50 to M1 IC50
Counter-ions that a name gives are not always drawn.
Below, each entry is listed with its recorded M2/M1.

[
  {
    "MOLECULE": "c1ccc2c(C3CCCCC3)cc(NCCCN3CCOCC3)nc2c1 [Example 10, hydrate]",
    "M2/M1": 6
  },
  {
    "MOLECULE": "Cl.Cl.c1ccc2nc(NCCCN3CCOCC3)ccc2c1",
    "M2/M1": 46
  },
  {
    "MOLECULE": "Cc1cc(NCCCN(C)C)nc2ccccc12.O=C(O)/C=C/C(=O)O.O=C(O)/C=C/C(=O)O",
    "M2/M1": 26
  },
  {
    "MOLECULE": "Cc1cc(NCCCCN2CCN(C)CC2)nc2ccccc12 [Example 6, hydrate]",
    "M2/M1": 15
  },
  {
    "MOLECULE": "CCN(CC)CCCNc1cc(C)c2ccccc2n1 [Example 11, dihydrochloride hemihydrate]",
    "M2/M1": 86
  },
  {
    "MOLECULE": "Cc1cc(NCCCN2CCN(C)CC2)nc2ccccc12 [Example 3, hemihydrate]",
    "M2/M1": 46
  },
  {
    "MOLECULE": "Cc1cc(NCCN(C)C)nc2ccccc12.O=C(O)/C=C/C(=O)O",
    "M2/M1": 27
  },
  {
    "MOLECULE": "Cc1cc(NCCCN2CCOCC2)nc2ccccc12 [Example 1, hydrate]",
    "M2/M1": 58
  },
  {
    "MOLECULE": "CCc1cc(NCCCN2CCOCC2)nc2ccccc12 [Example 9, hydrate]",
    "M2/M1": 22
  },
  {
    "MOLECULE": "Cc1cc(NCCCCN2CCOCC2)nc2ccccc12",
    "M2/M1": 41
  },
  {
    "MOLECULE": "Cc1cc(NCCN2CCOCC2)nc2ccccc12 [Example 5, hydrate]",
    "M2/M1": 21
  },
  {
    "MOLECULE": "Cc1cc(NCCCN2CCCC2=O)nc2ccccc12 [Example 7, hydrate]",
    "M2/M1": 15
  },
  {
    "MOLECULE": "Cc1cc(NCCCN2CCCCC2)nc2ccccc12 [Example 8, hemihydrate]",
    "M2/M1": 11
  }
]
